Values were extracted from ChEMBL document CHEMBL3046261.

# assay.name: Cytotoxicity against Homo sapiens (human) U87 cells by MTT assay
# Assay type: functional, cell-based, U-87MG ATCC
# condition: U-87 MG
I'd appreciate it if you could supply log10(IC50) values for the items below.
Units before log transform: µg/mL; reported quantity: IC50; transform: log10.

Look over these answered cases.
>>> observed("CC1(C)CC(=O)C2=C(C1)OC(N)=C(C#N)C21C(=O)N(CCCCCCCCCCBr)c2ccccc21 (stereo not given)")
0.40
>>> observed("O=C1C(=O)N(CCBr)c2ccccc21")
0.69
>>> observed("CC1(C)CC(=O)C2=C(C1)OC(N)=C(C#N)C21C(=O)N(CCCCCCBr)c2ccccc21 (stereo not given)")
1.89
>>> observed("CC1(C)CC(=O)C2=C(C1)OC(N)=C(C#N)C21C(=O)N(CCCBr)c2ccccc21 (stereo not given)")
2.49
>>> observed("N#CC1=C(N)Oc2c(c(=O)oc3ccccc23)C12C(=O)N(CCBr)c1ccccc12 (stereo not given)")
1.89

Required: log10(IC50), one value per compound below.
1. N#CC1=C(N)OC2=C(C(=O)CCC2)C12C(=O)Nc1ccccc12 (stereo not given)
2. N#CC1=C(N)Oc2[nH]c(=O)[nH]c(=O)c2C12C(=O)Nc1ccc(Br)cc12 (stereo not given)
3. N#CC1=C(N)OC2=C(C(=O)CCC2)C12C(=O)N(CCBr)c1ccccc12 (stereo not given)
4. Cc1nn(-c2ccccc2)c2c1C1(C(=O)Nc3ccccc31)C(C#N)=C(N)O2 (stereo not given)

Solution:
1. 2.19
2. 1.89
3. 1.89
4. 2.19

Kindly note the recorded log10(IC50) for N#CC1=C(N)Oc2c(c(=O)oc3ccccc23)C12C(=O)N(CCCCCCCCCCBr)c1ccccc12 (stereo not given) , which is 1.59
